Attribute: TGI
system: NCI-H23 lung; assay: NCI tumour cell line growth inhibition, 48 h
Numbers only here, please. The scale is µM.

Worked examples, 2 compounds total:
stdin: Report TGI on NCI-H23 lung for this entry: `c1ccc2cc(C[n+]3ccn(CCCCCCCCCCn4cc[n+](Cc5ccc6ccccc6c5)c4)c3)ccc2c1`
stdout: 3.35

stdin: Report TGI on NCI-H23 lung for this entry: `COc1ccc2cc(-c3nc(N)nc(N4N=C(C)CC4(C)C)n3)c(=N)oc2c1`
stdout: 31.8

Then this compound:
stdin: Report TGI on NCI-H23 lung for this entry: `CN(C)c1ccc(/C=C/C2=[N+](C)c3ccccc3C2(C)C)cc1`
stdout: 11.9

----------
test system: SW-620 colon; assay: NCI tumour cell line growth inhibition, 48 h
OBSERVATION TYPE: TGI

stdin: Look up TGI of `Cn1c(/C=C/[N+](=O)[O-])cc2ccccc21` and report it.
stdout: 3.22 µM

stdin: Look up TGI of `O=c1ssc(Cl)c1Cl` and report it.
stdout: > 8.11 µM

stdin: Look up TGI of Cc1ccc(S(=O)OCC23CC4CC(CC(C4)C2)C3)cc1 (stereo not given) and report it.
stdout: > 100 µM

stdin: Look up TGI of CCOC1Oc2ccccc2-c2nc(SC)ncc21 (stereo not given) and report it.
stdout: > 100 µM

stdin: Look up TGI of `OCc1ccc(N2CCc3ccccc3C2)cc1Cl` and report it.
stdout: > 100 µM

stdin: Look up TGI of COC(=O)C1(C(=O)OC)N=C(C)OC1/C=C/c1ccccc1 (stereo not given) and report it.
stdout: > 100 µM

---
stdin: Look up TGI of CCOC(=O)C(NC(=O)c1ccccc1)(Nc1ccc(Cl)cc1C(F)(F)F)C(F)(F)F (stereo not given) and report it.
stdout: 17.2 µM

stdin: Look up TGI of `O=C(/C(=C\c1ccc(Cl)cc1)c1ccccc1)c1ccccc1` and report it.
stdout: > 100 µM

----------
test system: SF-295 CNS; assay: NCI tumour cell line growth inhibition, 48 h
OBSERVATION TYPE: TGI (µM)
Numbers only here, please. The scale is µM.

stdin: Look up TGI of `CCN(CC)Cc1c(/C=C\c2cc(OC)c(OC)c(OC)c2)ccc(OC)c1O` and report it.
stdout: 32.1

Then this compound:
stdin: Look up TGI of `Clc1ccc(OCc2nnc3n2N=C(c2ccc(Cl)cc2Cl)CS3)cc1` and report it.
stdout: 44.2

----------
test system: HCT-116 colon; assay: NCI tumour cell line growth inhibition, 48 h; in the data active means GI50 below about 0.43 µM; inactive means the rest
Write down the outcome that applies. Available outcomes: true = active, false = inactive

The examples below pair each entry with its known result.
stdin: Recorded test outcome, item `COc1cc(-c2c(C#N)c(N)nc(N3CCOCC3)c2C#N)cc(OC)c1OC`
stdout: false

stdin: Recorded test outcome, item CC(=O)N1N=C2/C(=C/c3ccc(Cl)cc3)CC(C)CC2C1c1ccc(Cl)cc1 (stereo not drawn)
stdout: false

stdin: Recorded test outcome, item `CC(=O)c1cc(C(=O)c2ccc3c(c2)Sc2ccccc2N3)c2cc(C)ccn12`
stdout: true

stdin: Recorded test outcome, item `COc1ccc(/C=C2\C=C(c3ccccc3)N(CCc3ccccc3)C2=O)cc1OC`
stdout: false

stdin: Recorded test outcome, item `CCOc1cccc(-c2nc(N)nc(Nc3ccccc3SSc3ccccc3Nc3nc(N)nc(-c4cccc(OCC)c4)n3)n2)c1`
stdout: false

stdin: Recorded test outcome, item `Cc1cc(N(CCCl)CCCl)ccc1C=Nc1ccc2ccccc2c1`
stdout: false

stdin: Recorded test outcome, item `C[C@@H](Oc1ccc(C(=O)NS(=O)(=O)C(C)(C)C)cc1C(F)(F)F)c1ccc(Oc2ccccc2)cn1`
stdout: false

stdin: Recorded test outcome, item `O=C(Nc1n[nH]c2nnc(-c3cccnc3)cc12)C1CC1`
stdout: false

stdin: Recorded test outcome, item `Cc1ccc(Cl)c(Nc2ccccc2C(=O)O)c1Cl`
stdout: false

stdin: Recorded test outcome, item COc1ccc(C2=NN(C(=O)c3cc(OC)c(OC)c(OC)c3)C(c3ccc(N(C)C)cc3)C2)cc1 (stereo not drawn)
stdout: false

---
stdin: Recorded test outcome, item `COc1ccc(/C=C/C(=O)c2ccc(OC)c(OC)c2)cc1O`
stdout: false
